tested on: HL-60(TB) leukemia; test: NCI-60 one-dose screen, 48 h (100 = growth as untreated, 0 = no growth, -100 = all killed); settings: 10 µM unless noted
Compounds without any hit were thinned out: in the full panel of roughly 83,000, 20% have a hit. The source made the active and inactive calls. How the source made its calls: active means growth percent below 10; inactive means the rest.
Overview of reported growth across a group of molecules:

MOLECULE: O=C(c1ccccc1)C(Cl)C(Cl)c1ccccc1 (stereo not given)
STUDY SYSTEM: HL-60(TB) leukemia
growth: 25.2% (inactive)

MOLECULE: CC1=CC2(C)/C=C(C)/C=C\CC(O)/C=C3/C=CC(=C4C(=O)OC2(CC1C)C4=O)OC3 (stereo not given)
STUDY SYSTEM: HL-60(TB) leukemia
growth: -54.9% (active)

MOLECULE: NC(=O)c1cccc(-n2ccc3cc(NC(=O)Nc4ccc(Cl)c(C(F)(F)F)c4)ccc32)n1
STUDY SYSTEM: HL-60(TB) leukemia
growth: 99.3% (inactive)

MOLECULE: O=C1Nc2ccc(F)cc2/C1=C\c1c(-c2ccccc2)nc2ccccn12
STUDY SYSTEM: HL-60(TB) leukemia
growth: 56.4% (inactive)

MOLECULE: NC(=O)c1c(NC(=O)c2ccc(OCC3CCCO3)cc2)sc2c1CCCC2 (stereo not given)
STUDY SYSTEM: HL-60(TB) leukemia
growth: 53.8% (inactive)

----------
tested on: HL-60(TB) leukemia; experiment: NCI-60 one-dose screen, 48 h (100 = growth as untreated, 0 = no growth, -100 = all killed); details: 10 µM unless noted
The panel holds about 83,000 compounds, 20% with a hit somewhere; the sample as a whole holds those more often.
Decide using growth: a value greater than or equal to 10% is label 1, a smaller one is label 0.

COMPOUND: C/C=C\COc1cc(C)c(Cl)cc1Cl
CLASS: label 1
--
COMPOUND: COc1ccc2sc3cccc(NCCN(C)C)c3c(=O)c2c1
CLASS: label 0
--
COMPOUND: Nc1c(N)c2ccccc2c2ccccc12
CLASS: label 1
--
COMPOUND: OCc1nnn(-c2ccccc2)c1CO
CLASS: label 1
--
COMPOUND: NC(=O)c1n[nH]n2c1nc(=O)c1c3c(sc12)CCCC3
CLASS: label 1
--
COMPOUND: O=C(c1ccccc1)C(CN1CCOCC1)c1ccccc1 (stereo unspecified)
CLASS: label 1
--
COMPOUND: CC[C@]12C=CCN3CC[C@@]4(c5cc(NC(=O)CCC(=O)O[C@H]6CC[C@H]7[C@@H]8CCC9=CC(=O)CC[C@@H]9[C@H]8CC[C@]67C)c(OC)cc5N(C)[C@H]4[C@@](O)(C(=O)OC)[C@@H]1OC(C)=O)[C@@H]32
CLASS: label 1
--
COMPOUND: C/C(=N\O)C1(O)CCCCC1
CLASS: label 1
--
COMPOUND: CCOC(=O)C1=C(N)Oc2c(sc3c(F)cccc23)C1c1ccc(O)cc1 (stereo unspecified)
CLASS: label 1
--
COMPOUND: COC(=O)c1ccc(C(=O)Nc2ccccc2N)cc1
CLASS: label 0
--
COMPOUND: Cn1c(-c2c(N)n(Cc3ccc(C(F)(F)F)cc3)c3nc(C#N)c(C#N)nc23)nc2ccccc21
CLASS: label 0
--
COMPOUND: O=C1C(Cl)=C(Nc2ccc3cn[nH]c3c2)C(=O)c2ccccc21
CLASS: label 0
--
COMPOUND: COc1cc(CNC(=O)/C=C/C=C/c2ccc3c(c2)OCO3)ccc1OCc1cn(-c2ccc(C)c(C)c2)nn1
CLASS: label 1
--
COMPOUND: COc1ccc(C2C=C(c3ccc(Cl)c(Cl)c3)N=C3SC(C)=CN32)cc1OC (stereo unspecified)
CLASS: label 1
--
COMPOUND: COc1cc(NC(=O)C#Cc2ccccc2)c(OC)cc1Cl
CLASS: label 1
--
COMPOUND: N#Cc1nc(-c2ccccc2)oc1S(=O)(=O)N1CCOCC1
CLASS: label 0
--
COMPOUND: C=C1CC[C@@H]2[C@](C)(COC(C)=O)[C@H](OC(C)=O)CC[C@@]2(C)[C@@H]1CC(Sc1ccccc1)C1=CCOC1=O (stereo partly specified)
CLASS: label 0
--
COMPOUND: CCS(=O)(=O)CCCl
CLASS: label 1
--
COMPOUND: COP(=O)(OC)C(C)(C)CC(=O)CC(C#N)(C#N)C(C#N)C#N
CLASS: label 1
--
COMPOUND: COc1ccc2c(O)c(/C=C3\N=Nc4ccccc43)oc2c1C[C@@H]1CCNC[C@H]1F
CLASS: label 1
--
COMPOUND: Cn1cnc2c(N3CCN(C(=O)OCc4ccc5c(Cl)cc(Cl)c(O)c5n4)CC3)nc(Cl)nc21
CLASS: label 1

Provenance of the data: PubChem BioAssay (NCI)
